Attribution: patent US8008547B2

Listed here: items and their measured Kcat.
# measurementProtocol: Standard protocol for determination of kcat and KM (continuous spectrophotometric assay, Acetyl CoA hydrolysis at 235 nm)
# Type: biochemical
# experimentalConditions: purified protein; about 23° C.; 20 mM HEPES pH 6.8, 10% ethylene glycol, 0.2 mM acetyl CoA
Numeric answer only, unit s⁻¹ assumed.

Record excerpt, results attached:
SEQ ID NO: 449: GAT polypeptide (protein, 0_6D11, GAT polypeptide) MIEVKPINAEDTYELRHRILRPNQPIEACMYESDLLRGAFHLGGYYRGKLISIASFHQAEHSDLQGQKQYQLRGMATLEGFRDQKAGSSLIRHAEQILRKRGADLLWCNARTSASGYYKKLGFSEQGEVFETPPVGPHILMYKRIT : 3.53
SEQ ID NO: 272: GAT polypeptide (protein, 10_17F6, GAT polypeptide) MIEVKPINAEDTYEIRHRILRPNQPLEACKYETDLLGGTFHLGGYYRGKLVSIASFHQAEHSELEGQKQYQLRGMATLEEYREQKAGSTLIRHAEELLRKKGADLLWCNARTSASGYYKKLGFSEQGEVYDIPPVGPHILMYKKLT : 0.798
SEQ ID NO: 483: GAT polypeptide (protein, 1_5H5, GAT polypeptide) MLEVKPINAEETYELRHKILRPNQPLEACMYESDLLRGSFHLGGYYRGQLISIASFHQAEHSELEGQKQYQLRGMATLEGFREQKAGSTLIKHAEQILRKRGADMLWCNARTSAAGYYKKLGFSEHGEIFDTPPVGPHILMYKKLT : 3.57
SEQ ID NO: 402: GAT polypeptide (protein, 6_3D6, GAT polypeptide) MIEIKPINAEDTYEIRHRILRPNQPLEACMYETDLLGGTFHLGGYYRGKLISIASFHQAEHPELEGQKQYQLRGMATLEGYREQKAGSTLIRHAEELLRKKGADLLWCNARTSASGYYKKLGFSEQGEVYDIPPVGPHILMYKKLT : 0.695

Which Kcat reading was recorded for the molecule SEQ ID NO: 372: GAT polypeptide (protein, 4B_19C8, GAT polypeptide) MIEVKPINAEDTYEIRHRILRPNQPLEACKYETDLLGGTFHLGGYYRGKLISIASFHQAEHPELEGQKQYQLRGMATLEGYREQKAGSTLIRHAEELLRKKGADLLWCNARTSASGYYKKLGFSEQGGVYDIPPIGPHILMYKKLA ? 0.265
